# credit: the supplement of paper PMC4466140

Molecular target: SpSla1-D1-D2
Assay: SPOT peptide array binding signal intensity (averaged, normalized) (arbitrary units (background-subtracted, floor 0; scale differs between SH3 domains)); higher = stronger binding of the SH3 domain to the peptide
property_label: SPOT peptide array binding signal intensity

binder: NPLPKEPRLPKRKVA
result: ≤ 0
--
binder: LLGRKRPVMERVVDI
result: ≤ 0
--
binder: PPIPNAPLSPAPAVP
result: ≤ 0
--
binder: LKQRFFLMFPKSIIW
result: ≤ 0
--
binder: PHNPSPFFPPPDFND
result: ≤ 0
--
binder: QHQQRQPKRPKRYSL
result: ≤ 0
--
binder: NQARKPFLLPATELS
result: ≤ 0
--
binder: QPQRTAPKPPISAPR
result: ≤ 0
--
binder: GQYRRTIVIPRRFFT
result: 6
--
binder: MFLISPPASPPPEFD
result: ≤ 0
--
binder: SRSKPLPLTPNSKYN
result: 844
--
binder: RLSFFFPLDPAYIRN
result: 6
--
binder: DLFKPLPEPPTELGR
result: ≤ 0
